molecular target: SIRT1 (Homo sapiens, UniProt Q96EB6); test: Trp mass spectrometry assay of SIRT1 activity; format: biochemical; settings: Trp assay; concentration giving 150% activation of SIRT1
Sequence (Q96EB6 whole entry): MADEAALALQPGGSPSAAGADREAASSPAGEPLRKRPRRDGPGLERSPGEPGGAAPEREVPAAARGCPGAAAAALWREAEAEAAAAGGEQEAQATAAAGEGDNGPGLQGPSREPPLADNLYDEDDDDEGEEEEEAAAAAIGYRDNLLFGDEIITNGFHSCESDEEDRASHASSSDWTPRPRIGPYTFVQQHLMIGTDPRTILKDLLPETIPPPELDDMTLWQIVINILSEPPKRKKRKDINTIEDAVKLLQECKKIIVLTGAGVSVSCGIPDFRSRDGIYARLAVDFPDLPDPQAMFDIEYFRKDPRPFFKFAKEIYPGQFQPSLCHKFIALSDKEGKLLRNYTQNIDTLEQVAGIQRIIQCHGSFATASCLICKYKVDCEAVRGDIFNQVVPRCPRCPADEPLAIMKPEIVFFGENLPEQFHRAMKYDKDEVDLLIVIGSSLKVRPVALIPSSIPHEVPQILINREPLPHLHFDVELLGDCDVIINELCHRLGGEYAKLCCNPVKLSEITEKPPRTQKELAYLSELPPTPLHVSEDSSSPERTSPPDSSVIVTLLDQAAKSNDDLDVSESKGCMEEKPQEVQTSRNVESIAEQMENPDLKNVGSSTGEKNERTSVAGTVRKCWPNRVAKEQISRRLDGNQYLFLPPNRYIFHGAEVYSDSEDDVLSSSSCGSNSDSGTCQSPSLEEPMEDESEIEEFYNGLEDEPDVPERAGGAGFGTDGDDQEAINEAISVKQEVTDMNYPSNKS

- molecule: "O=C(Nc1cnn2ccc(-c3ccccc3C(F)(F)F)nc12)c1ncc(F)cc1F [Compound 749]"
  Trp EC1.5 (μM): "B (EC1.5 1-25 μM)"
- molecule: "CN(C)c1cnnc(NC(=O)c2cnc3ccc(N4CC[C@H](F)C4)nn23)c1 [Compound 924]"
  Trp EC1.5 (μM): "B (EC1.5 1-25 μM)"
- molecule: "Cc1cc(C)nc(NC(=O)c2c(C)nc3ccc(-c4cccc(OC[C@H](O)CO)c4)nn23)c1 [Compound 791]"
  Trp EC1.5 (μM): "B (EC1.5 1-25 μM)"
- molecule: "Cc1cccc(C(=O)Nc2cnn3ccc(-c4ccccc4OC(F)(F)F)nc23)n1 [Compound 725]"
  Trp EC1.5 (μM): "B (EC1.5 1-25 μM)"
- molecule: "COc1nccc(NC(=O)c2cnn3ccc(-c4ccccc4OC(F)(F)F)nc23)n1 [Compound 797]"
  Trp EC1.5 (μM): "A (EC1.5<1 μM)"
- molecule: "CC1(COc2ccnc(NC(=O)c3cnc4ccc(-c5ccccc5C(F)(F)F)nn34)n2)COC1 [Compound 340]"
  Trp EC1.5 (μM): "A (EC1.5<1 μM)"
- molecule: "O=C(Nc1cccnn1)c1cnc2ccc(-c3cccc(OC[C@H](O)CO)c3)nn12 [Compound 887]"
  Trp EC1.5 (μM): "A (EC1.5<1 μM)"
- molecule: "Cc1nc(NC(=O)c2cnc3ccc(N4CC[C@H](F)C4)nn23)sc1C [Compound 892]"
  Trp EC1.5 (μM): "A (EC1.5<1 μM)"
